- System: MDA-MB-435
- assay overview: NCI tumour cell line growth inhibition, 48 h
measured property: TGI

>>> result("CC(C)=CCS(=O)c1ccccc1NC1=CC(=O)CC(C)(C)C1 (stereo not drawn)")
"> 100 µM"
>>> result("N#CC1Nc2ccccc2[C@@H](O)C1O (stereo partly drawn)")
"> 100 µM"
>>> result("O=C(c1ccccc1)c1c(-c2ccccc2)[nH]n(-c2ccc([N+](=O)[O-])cc2)c(=O)c1=O")
"> 100 µM"

---

- System: SF-539 CNS
- assay overview: NCI tumour cell line growth inhibition, 48 h
This listing pairs compounds with measured TGI.
measured property: TGI

>>> result("COc1ccc2c(c1C)C(=O)C(O)(CC=C(C)C)O2 (stereo not drawn)")
"> 100 µM"
>>> result("CCOC(=O)C1N(S(=O)(=O)c2ccc(C)cc2)CCC12C(c1ccc(OC)cc1)NC1CCCCC12 (stereo not drawn)")
"> 100 µM"
>>> result("O=C(O)Cc1c(O)ccc2ccccc12")
"> 100 µM"
>>> result("CCCS(=O)(=O)Nc1ccc(Nc2c3ccccc3nc3ccccc23)c(OC)c1")
"4.18 µM"
>>> result("C[C@]12CCC(=O)C=C1CC[C@@H]1C2CC[C@]2(C)c3nn(-c4ccc(F)cc4)nc3CC12 (stereo partly drawn)")
"> 100 µM"
>>> result("COc1cc2cn3c4ccc(O)cc4[nH]c(=O)c3c2cc1OC")
"0.296 µM"
>>> result("COC(=O)C12C3C4C5(C(=O)OC)C(C1C35C(=O)N(C(C)C)C(C)C)C42C(=O)N(C(C)C)C(C)C (stereo not drawn)")
"> 50 µM"
>>> result("O=c1[nH]c2cc(Cl)ccc2n1C1CCN(CCCC(c2ccc(F)cc2)c2ccc(F)cc2)CC1")
"3 µM"
